test_protocol: Cycloheximide Counterscreen for Small Molecule Inhibitors of Shiga Toxin; further: read at 38.3 µM for the half of the compounds with a filed dose
settings: cell reporter, cycloheximide protein synthesis inhibition counterscreen
In all, about 300,000 compounds went through this assay and about 37,000 (12%) were called active. No stated cut-off is given here; in the data, active means max response mostly above about 13% (no sharp cut-off); inactive means mostly below about 14%. Shown is part of a subset that was picked to be rich in actives.
Select the matching outcome among active, inactive

Worked cases, answers included:
CCNC(=S)N1CCN(C(=O)c2ccco2)CC1; inactive
CS(=O)(=O)N1CCCC(C(=O)Nc2ccccc2C(F)(F)F)C1 (stereo not given); inactive
CC(C)c1nc2cc(C(=O)NC(C)c3cnn(C)c3)ccc2o1 (stereo not given); active
O=C(CSC(=S)N1CCOCC1)c1cc(Br)cc(Br)c1O; inactive
CC(C)Cn1c(N2CCN(C(=O)/C=C/c3ccccc3)CC2)nc2ccccc21; inactive

Qu. Called result for CCc1cc2c(=O)c(-c3ccc(F)cc3)c(C(F)(F)F)oc2cc1OCC(=O)O
Ans. inactive

Qu. Lab log entry: CCOc1ccc(-n2c(N)c(C(=O)NCC3CCCO3)sc2=S)cc1 (stereo not given) — outcome as called in the assay?
Ans. inactive

Qu. # lookup: test call for Cc1cccc(C)c1NC(=O)N1CC(C)OC(C)C1 (stereo not given)
Ans. inactive

Qu. Hi, sorry to bother you, what did the test record for CC1=Nn2c(nnc2-c2ccccc2)SC1 ?
Ans. inactive

Qu. Query: recorded result category for COc1ccc(CNC(=O)c2cc(=O)c3c(C)cc(C)cc3o2)cc1 in this test
Ans. inactive

Qu. Recorded call for Cc1c(C(=O)NCC2CCCO2)sc2nc(-c3ccccc3)cn12 (stereo not given) ?
Ans. active

Qu. Assay result, entry COC(=O)c1ccc(CNC(=O)c2ccc3oc(C(C)C)nc3c2)cc1 — outcome?
Ans. active

Qu. # fetch the recorded call for COc1ccc(/C=C2/SC(=O)N(CCCCCC(=O)Nc3ccccc3C(=O)O)C2=S)cc1 here
Ans. inactive

Qu. What outcome does the record of this test show for COc1ccc(N(C(=O)c2snc(C(N)=O)c2N)C(C(=O)NC2CCCC2)c2ccc(C)o2)c(OC)c1 (stereo not given) ?
Ans. inactive

Qu. Hi, sorry to bother you, what did the test record for O=C(O)c1cccc(NC(=S)N/N=C/c2c[nH]c3ccccc23)c1 ?
Ans. inactive

Qu. Short answer needed: outcome of this test for Cc1ccc(S(=O)(=O)N2CCN=C2SCc2c(F)cccc2Cl)cc1 ?
Ans. inactive
